The reported measurements were obtained from paper PMC6264767.

System: HSV-1 TK^− KOS ACV^r
assay method text: microbe, parasite or virus in culture
Assay type: cell-based, herpes simplex virus-1
setup conditions: Human alphaherpesvirus 1, HEL, read-out: EC50 HSV-1 TK^− KOS ACV^r
pEC50: −log10 of the molar value.
Quick list: pEC50 per entry.

Take a look at these entries with their results.
>>> measured_value("O=c1oc2ccccc2c(O)c1C(c1ccc([N+](=O)[O-])cc1)c1c(O)c2ccccc2oc1=O")
"< 4.70"
>>> measured_value("COc1cc(OC)c2c(c1)Oc1c(c(=O)oc3ccccc13)C2c1c(O)c2ccccc2oc1=O (stereo not shown)")
"< 4.70"
>>> measured_value("O=c1oc2ccccc2c(O)c1C(c1ccc(C(F)(F)F)cc1)c1c(O)c2ccccc2oc1=O")
"< 5.40"
>>> measured_value("COc1cc(C(c2c(O)c3ccccc3oc2=O)c2c(O)c3ccccc3oc2=O)cc([N+](=O)[O-])c1O")
"< 4.00"

I have this compound here, COc1ccc(OC)c(C(c2c(O)c3ccccc3oc2=O)c2c(O)c3ccccc3oc2=O)c1 , and I need its recorded pEC50.
< 4.00

Query O=c1oc2ccccc2c(O)c1C(c1ccc(O)c(O)c1)c1c(O)c2ccccc2oc1=O next
< 4.70

Query CSc1ccc(C(c2c(O)c3ccccc3oc2=O)c2c(O)c3ccccc3oc2=O)cc1 next
< 4.70
